Test system: LOX IMVI
experiment summary: NCI tumour cell line growth inhibition, 48 h
Activity calls are given as the source filed them. Cut-off read from the data, not from the text of the source: active = GI50 up to about 1.1 µM and inactive = higher.
Items are presented alongside their recorded GI50.
measure name: GI50

compound	test result
CCOC(=O)CCC(NC(=O)c1ccc(/N=C/c2nc3cc(C(F)(F)F)ccc3nc2-c2ccccc2)cc1)C(=O)OCC (centres undefined)	14.4 µM (inactive)
O=C(CO[N+](=O)[O-])OC/C=C/c1ccccc1	> 100 µM (inactive)
C[C@@H](NC(=O)Nc1cccc(C(=O)Nc2cc(C(C)(C)C)ccc2C(=O)O)n1)c1ccccc1	19.3 µM (inactive)
Cc1cc(OCc2nnc3n2N=C(c2cc(F)c(Cl)cc2Cl)/C(=C/c2ccc(-c4ccc(Cl)cc4)o2)S3)ccc1Cl	31.6 µM (inactive)
COc1ccc(C2C(Cl)C(=O)N2NC(=O)c2ccccc2O)cc1OC (centres undefined)	36.5 µM (inactive)
O=C(NCCN1CCCC1)c1cn2c(ccc3sc4ccccc4c(=O)c32)n1	1.46 µM (inactive)
CC1CC(OP(=O)(OCc2ccccc2)OCc2ccccc2)[C@@H](OCc2ccccc2)C(OCc2ccccc2)C1OCc1ccccc1 (some centres undefined)	> 100 µM (inactive)
C[C@H]1[C@H](C)N1CC(O)Cn1ccnc1[N+](=O)[O-] (some centres undefined)	> 100 µM (inactive)
CC1CC2C3CC(F)C4=CC(=O)C=CC4(C)C3(F)C(O)CC2(C)C1(O)C(=O)CO (centres undefined)	> 100 µM (inactive)

* * *

Tested on: SK-MEL-28
experiment summary: NCI tumour cell line growth inhibition, 48 h
Calls of active or inactive are those of the source. Cut-off read from the data, not from the text of the source: active = GI50 up to about 1.1 µM and inactive = higher.
The entries below come with measured GI50 values attached.
measure name: GI50

compound	system name	measure name	test result
O=S(=O)(O)SC/C=C\CSS(=O)(=O)O	SK-MEL-28	GI50	> 100 µM (inactive)
CCOC(=O)NC(Nc1ccc(C(=O)OCC)cc1)(C(F)(F)F)C(F)(F)F	SK-MEL-28	GI50	> 100 µM (inactive)
CCCCCCCCC/C=C1\CCC(CN(C)C)C1=O (centres undefined)	SK-MEL-28	GI50	2.03 µM (inactive)
CC1=NN(C(=O)c2ccc(Cl)cc2)C(=O)/C1=C/c1ccccc1O	SK-MEL-28	GI50	> 100 µM (inactive)

* * *

Listed next: entries and their corresponding GI50.
Tested on: OVCAR-8
experiment summary: NCI tumour cell line growth inhibition, 48 h
The source made the active and inactive calls. No stated cut-off is given here; in the data, active = GI50 up to about 1.1 µM and inactive = higher.

compound	system name	GI50
N#Cc1ccc(OCCSCCCCCCCCCCSCCOc2ccc(C#N)cc2)cc1	OVCAR-8	> 100 µM (inactive)
COC1=CC(=O)c2c(c(COP(=O)(N(C)CCBr)N(C)CCBr)cn2C)C1=O	OVCAR-8	< 0.0264 µM (active)
CC(=O)OCC1OC(N2C(=O)[C@@H](Oc3ccccc3)[C@H]2/C=C/c2ccccc2)C(OC(C)=O)C(OC(C)=O)C1OC(C)=O (stereo partly specified)	OVCAR-8	> 100 µM (inactive)
Cc1c(/N=C/C=C/c2ccccc2)c(=O)n(-c2ccccc2)n1C	OVCAR-8	17.4 µM (inactive)
C[C@@H]1C[C@@H](O)[C@@]2(O)C13CC(=O)OC(C3)[C@@H](C)[C@@]2(C)CO (stereo partly specified)	OVCAR-8	> 100 µM (inactive)
CCC(C)C(=O)OC1C(=O)OC2CC3C(C)=CC(=O)C(O)C3(C)C3C4(O)OCC23C1C(C)C4O (stereo unspecified)	OVCAR-8	< 0.01 µM (active)
O=C(c1ccco1)N(Cc1cccnc1)C(=S)N(Cc1cccnc1)C(=O)c1ccco1	OVCAR-8	19.4 µM (inactive)
Cn1c(=O)n2c(=O)n(C)c(=O)n2c1=O	OVCAR-8	> 100 µM (inactive)
Clc1ccc2c(NC3CCC(N4CCCCC4)CC3)ccnc2c1 (stereo unspecified)	OVCAR-8	29.4 µM (inactive)
O=C(c1ccc(Cl)cc1Cl)C1[C@H]2C(=O)N(c3ccc(Cc4ccc(N5C(=O)[C@@H]6ON(c7ccccc7)C(C(=O)c7ccc(Cl)cc7Cl)[C@@H]6C5=O)cc4)cc3)C(=O)[C@H]2ON1c1ccccc1 (stereo partly specified)	OVCAR-8	> 50 µM (inactive)
C=CCO/N=C(\OC(=O)c1ccc([N+](=O)[O-])cc1)c1ccccc1	OVCAR-8	> 100 µM (inactive)
C/C(=N\N=C(/[SeH])N1CC2CCC(CC2)C1)c1ccccn1	OVCAR-8	0.0137 µM (active)
c1ccc(C[P+]2(c3ccccc3)c3ccccc3-c3ccccc32)cc1	OVCAR-8	> 100 µM (inactive)
O=C(CCO)OCCCCCC/C=C\CCCCCC/C=C\CCCCCCCCOC(=O)CCO	OVCAR-8	18.5 µM (inactive)
COc1ccc2ccccc2c1C1=NC(C)(C)CO1	OVCAR-8	> 100 µM (inactive)
CCN1C(NN)=NS(=O)(=O)c2ccccc21	OVCAR-8	> 100 µM (inactive)
O=C(CC(=O)C1CCOC1=O)C(=O)Nc1cccc(Cl)c1 (stereo unspecified)	OVCAR-8	> 100 µM (inactive)
CN(C)/C=N/c1nc2ncn(CCOC(=O)c3ccccc3)c2c(=O)[nH]1	OVCAR-8	> 100 µM (inactive)
COC(=O)N1CC[C@@H]2CCC=C(c3cccc4c3OCO4)[C@@H]21	OVCAR-8	> 100 µM (inactive)
COc1ccc(Nc2nc3ccccc3nc2-c2cccs2)cc1OC	OVCAR-8	> 10 µM (inactive)
CC12CCC3=C(CSC4=C3CSc3ccccc34)C1=CCCC2=O (stereo unspecified)	OVCAR-8	78.5 µM (inactive)

* * *

Test system: OVCAR-5
experiment summary: NCI tumour cell line growth inhibition, 48 h
Calls of active or inactive are those of the source. No stated cut-off is given here; in the data, active = GI50 up to about 1.1 µM and inactive = higher.
Possible outcomes: 1 (yes) = active, 0 (no) = inactive

molecule	assigned label
NC(=O)SCC(=O)Nc1ccc2cccc3c2c1CC3	0 (no)
O=C(N/N=C\c1ccccc1)Nc1cccc2ccccc12	0 (no)
NC(=O)c1c2c(cc3c(=O)c4ccccc4[nH]c13)CCCC2	0 (no)
CCOC(=O)NC(Nc1ccc(S(=O)(=O)Nc2ccc(OC)nn2)cc1)(C(F)(F)F)C(F)(F)F	0 (no)
COC(=O)c1c(C)nc(C)c(N=O)c1-c1ccccc1C(F)(F)F	0 (no)
OC1CCC(COC(c2ccccc2)(c2ccccc2)c2ccccc2)O1 (stereo not given)	0 (no)
CC1CC2C3CC(F)C4=CC(=O)C=CC4(C)C3(F)C(O)CC2(C)C1(O)C(=O)CO (stereo not given)	0 (no)
COC1=CC(=O)c2c(c(COP(=O)(N(C)CCBr)N(C)CCBr)cn2C)C1=O	1 (yes)
CCC(C)C(=O)OC1C(=O)OC2CC3C(C)=CC(=O)C(O)C3(C)C3C4(O)OCC23C1C(C)C4O (stereo not given)	1 (yes)
Oc1ccc(Cl)cc1/C=N/c1cnc2ccccc2c1	0 (no)
CC1=C(SCc2ccccc2)C(=O)c2ccccc2C1=O	0 (no)
CN1CCN(c2nc3ccccc3nc2C(=O)c2ccc(Cl)cc2)CC1	0 (no)
Oc1[nH]c(Nc2ccc(F)c(Cl)c2)nc2ncnc1-2	0 (no)
S=C1SC(=N\c2ccccc2)/C(=N/c2ccccc2)N1c1ccc2ccccc2c1	0 (no)
O=[N+]([O-])c1ccc(/C=N\N=c2/ccc([N+](=O)[O-])c[nH]2)cc1	0 (no)
Clc1ccc(-c2nn3c(CCCCCCCCc4nnc5sc(-c6ccc(Cl)cc6)nn45)nnc3s2)cc1	0 (no)
C=CC(=C)CCC(Br)C(C)(C)Cl (stereo not given)	0 (no)
N#Cc1ccc(OCCSCCCCCCCCCCSCCOc2ccc(C#N)cc2)cc1	0 (no)
COC(=O)/C(=N\NC(N)=O)C(C(=O)C(=O)Nc1ccccc1OC)c1nc2ccc([N+](=O)[O-])cc2nc1O (stereo not given)	0 (no)
O=C(c1ccc(Cl)cc1Cl)C1[C@H]2C(=O)N(c3ccc(Cc4ccc(N5C(=O)[C@@H]6ON(c7ccccc7)C(C(=O)c7ccc(Cl)cc7Cl)[C@@H]6C5=O)cc4)cc3)C(=O)[C@H]2ON1c1ccccc1 (stereo not given in full)	0 (no)
Nc1nc(Cl)c(N)c(NCC2(CO)CCC2)n1	0 (no)
COC(=O)C(C(=O)C(N)=O)c1csc(-n2nc(-c3ccccc3)cc2-c2ccccc2)n1 (stereo not given)	0 (no)
C[C@H]1[C@H](C)N1CC(O)Cn1ccnc1[N+](=O)[O-] (stereo not given in full)	0 (no)
CC(C)OP(=O)(OC(C)C)/C(C#N)=C/c1c[nH]c2ccccc12	0 (no)
O=C(CCO)OCCCCCC/C=C\CCCCCC/C=C\CCCCCCCCOC(=O)CCO	0 (no)
COC(=O)/C(C#N)=C/c1cc(C(C)(C)C)c(O)c(C(C)(C)C)c1	0 (no)
CC1CC(OP(=O)(OCc2ccccc2)OCc2ccccc2)[C@@H](OCc2ccccc2)C(OCc2ccccc2)C1OCc1ccccc1 (stereo not given in full)	0 (no)
C[N+](C)(C)c1ccc(C(N)C(=O)O)cc1 (stereo not given)	0 (no)
Nc1nc(N)c(NC(=O)CCCO)c(=O)[nH]1	0 (no)
CCOC(=O)[C@@H]1C2C(=C[C@H]3[C@H]1C(=O)N1CCCC[C@H]31)CCCN2C(=O)OCc1ccccc1 (stereo not given in full)	0 (no)
C=C(Cl)c1c(OC)cccc1OCc1ccccc1	0 (no)
CC/C(=N/O)c1ccc(Br)s1	0 (no)
COC(=O)/C=C1\C(=O)C=C2[C@@H]3C[C@H]4C[C@H](CC[C@@]4(C)N21)C3(C)NC(C)=O (stereo not given in full)	0 (no)
Cc1sc2nc(-c3ccc([N+](=O)[O-])cc3)c(/C=N/N=C(N)N)n2c1C	0 (no)
O=C(O)C1(Cc2ccccc2)Cc2ccccc2C1	0 (no)
CCOC(=O)C1N(S(=O)(=O)c2ccc(C)cc2)CCC12c1ccccc1N(C(C)=O)C2C(/C=C/C(=O)OC)=C/C(=O)OC (stereo not given)	0 (no)
CN(C)c1ccc(/C=C/C=C\c2cc(/C=C/C=C/c3ccc(N(C)C)cc3)[s+]c3ccccc23)cc1.[O-][Cl+3]([O-])([O-])[O-]	0 (no)
N#Cc1nc(C(F)(F)F)oc1N	0 (no)
CCOC(=O)c1ncn2c1[nH]c(=S)c1ccccc12	0 (no)
COc1ccc2c(C(=O)c3cn(CCN4CCOCC4)c4ccccc34)cccc2c1	0 (no)
